Listed next: entries and their corresponding pIC50.
Target: rat MASP2 (Rattus norvegicus (Rat))
Sequence (Q9JJS8 other isoform, or with tags, fused parts or gaps): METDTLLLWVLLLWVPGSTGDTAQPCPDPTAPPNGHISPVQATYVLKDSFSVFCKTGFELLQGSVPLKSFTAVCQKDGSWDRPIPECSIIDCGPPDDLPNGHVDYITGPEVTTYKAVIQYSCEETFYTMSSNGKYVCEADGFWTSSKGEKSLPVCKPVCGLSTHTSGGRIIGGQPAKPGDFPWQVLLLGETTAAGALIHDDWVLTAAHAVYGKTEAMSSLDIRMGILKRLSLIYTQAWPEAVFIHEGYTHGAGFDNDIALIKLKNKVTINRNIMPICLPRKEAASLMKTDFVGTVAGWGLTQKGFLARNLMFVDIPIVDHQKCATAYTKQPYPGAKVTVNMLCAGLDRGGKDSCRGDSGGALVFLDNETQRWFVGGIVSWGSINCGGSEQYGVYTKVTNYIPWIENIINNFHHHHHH
Experiment: Biochemical rat MASP2 assay (FRET substrate)
Conditions: Average IC50; recombinant rat MASP2; read-out: rat MASP2 IC50
Where a SMILES comes first, the peptide text is derived from it. Bridges are numbered along the chain shown (N, C = ends). [ ]: non-standard residue; d: D form. Oic = O=C(O)[C@@H]1C[C@@H]2CCCC[C@@H]2N1; tBuAla = CC(C)(C)C[C@H](N)C(=O)O; Pen = CC(C)(S)[C@H](N)C(=O)O; Dap = NC[C@H](N)C(=O)O; Ahx = NCCCCCC(=O)O
Notebook: values listed as pIC50 are -log10 of the concentration (mol/L).

Some molecules with known pIC50 results, for comparison:
CC[C@H](C)[C@@H]1NC(=O)CNC(=O)[C@@H](N)CCC(=O)NC[C@@H](C(N)=O)NC(=O)[C@H](CC(=O)O)NC(=O)[C@@H]2CCCN2C(=O)[C@H]([C@@H](C)CC)NC(=O)[C@H]2NC(=O)[C@H]([C@@H](C)CC)NC(=O)[C@@H]3C[C@@H]4CCCC[C@@H]4N3C(=O)[C@@H]3CCCN3C(=O)[C@H](CC(C)C)NC(=O)[C@H](CO)NC(=O)[C@H](CCCNC(=N)N)NC(=O)[C@H](CO)NC(=O)[C@H](CSSC2(C)C)NC1=O [Example 93] (H-EGICSRSLP[Oic]I[Pen]IPD[Dap]-NH2; lactam 1-16; disulfide 4-12)    7.17
CC[C@H](C)[C@@H]1NC(=O)[C@H](CN)NC(=O)[C@H](CN)NC(=O)[C@@H]2CCCN2C(=O)[C@H]([C@@H](C)CC)NC(=O)[C@H]2NC(=O)[C@H]([C@@H](C)CC)NC(=O)[C@@H]3C[C@@H]4CCCC[C@@H]4N3C(=O)[C@@H]3CCCN3C(=O)[C@H](CC(C)C)NC(=O)[C@H](CO)NC(=O)[C@H](CCCNC(=N)N)NC(=O)[C@H](CO)NC(=O)[C@H](CSSC2(C)C)NC1=O    7.19

Exercise: Requested read-out: pIC50. Entry: CC[C@H](C)[C@@H]1NC(=O)CNC(=O)[C@H](CC(=O)O)NC(=O)[C@@H]2CCCN2C(=O)[C@H]([C@@H](C)CC)NC(=O)[C@@H]2CSSC[C@H](NC1=O)C(=O)N[C@@H](CO)C(=O)N[C@@H](CCCNC(=N)N)C(=O)N[C@@H](CO)C(=O)N[C@@H](CC(C)C)C(=O)N1CCC[C@H]1C(=O)N1CCC[C@H]1C(=O)N[C@@H]([C@@H](C)CC)C(=O)N2 [Ref. No 7, reference compound] (cyclo(CIPDGICSRSLPPI); disulfide 1-7)
Solution: 6.63

Exercise: Do the same for CC[C@H](C)[C@@H]1NC(=O)CN(C)C(=O)CCCCCNC(=O)[C@@H]2CCCN2C(=O)[C@H]([C@@H](C)CC)NC(=O)[C@H]2NC(=O)[C@H]([C@@H](C)CC)NC(=O)[C@@H]3CCCN3C(=O)[C@@H]3CCCN3C(=O)[C@H](CC(C)(C)C)NC(=O)[C@H](CO)NC(=O)[C@H](CCCNC(=N)N)NC(=O)[C@H](CO)NC(=O)[C@H](CSSC2(C)C)NC1=O please
Solution: 7.74

Exercise: Again, but for CC[C@H](C)[C@@H]1NC(=O)[C@@H]2CSSC[C@H](NC(=O)[C@H](Cc3ccc(O)cc3)NC(=O)CNC(=O)[C@H](CC(=O)O)NC(=O)[C@@H]3CCCN3C1=O)C(=O)N[C@@H](CO)C(=O)N[C@@H](CCCNC(=N)N)C(=O)N[C@@H](CO)C(=O)N[C@@H](Cc1ccc(O)cc1)C(=O)N1CCC[C@H]1C(=O)N1CCC[C@H]1C(=O)N[C@@H](C(C)C)C(=O)N2 [Ref. No 8, reference compound] (cyclo(CIPDGYCSRSYPPV); disulfide 1-7)
Solution: 6.90

Exercise: Proceed to CC[C@H](C)[C@@H]1NC(=O)[C@@H]2CCCN2C(=O)[C@@H]2CCCN2C(=O)[C@H]([C@@H](C)CC)NC(=O)[C@@H]2CSSC[C@H](NC(=O)[C@H]([C@@H](C)O)NC(=O)[C@H](CCCCN)NC(=O)[C@H](CO)NC1=O)C(=O)N[C@@H](CCCNC(=N)N)C(=O)NCC(=O)N[C@@H](CC(=O)O)C(=O)N1CCC[C@H]1C(=O)N[C@@H](Cc1ccccc1)C(=O)N2 [Ref. No 12, reference compound] (cyclo(RGDPFCIPPISKTC); disulfide 6-14)
Solution: 6.00

Exercise: One more molecule: CC[C@H](C)[C@@H]1NC(=O)CCCCCNC(=O)[C@H]([C@@H](C)CC)NC(=O)[C@H]2NC(=O)[C@H]([C@@H](C)CC)NC(=O)[C@@H]3CCCN3C(=O)[C@@H]3CCCN3C(=O)[C@H](CC(C)(C)C)NC(=O)[C@H](CO)NC(=O)[C@H](CCCNC(=N)N)NC(=O)[C@H](CO)NC(=O)[C@H](CSSC2(C)C)NC1=O [Example 52] (cyclo([Ahx]ICSRS[tBuAla]PPI[Pen]I); disulfide 3-11)
Solution: 7.94

Exercise: Queued: CC[C@H](C)[C@@H]1NC(=O)[C@H](C)NC(=O)CCCCCNC(=O)[C@@H]2CCCN2C(=O)[C@H]([C@@H](C)CC)NC(=O)[C@H]2NC(=O)[C@H]([C@@H](C)CC)NC(=O)[C@@H]3CCCN3C(=O)[C@@H]3CCCN3C(=O)[C@H](CC(C)(C)C)NC(=O)[C@H](CO)NC(=O)[C@H](CCCNC(=N)N)NC(=O)[C@H](CO)NC(=O)[C@H](CSSC2(C)C)NC1=O [Example 53] (cyclo(AICSRS[tBuAla]PPI[Pen]IP[Ahx]); disulfide 3-11)
Solution: 7.72

Exercise: Repeat with CC[C@H](C)[C@@H]1NC(=O)CCCNC(=O)[C@H](CC(=O)O)NC(=O)[C@@H]2CCCN2C(=O)[C@H]([C@@H](C)CC)NC(=O)[C@H]2NC(=O)[C@H]([C@@H](C)CC)NC(=O)[C@@H]3CCCN3C(=O)[C@@H]3CCCN3C(=O)[C@H](CC(C)(C)C)NC(=O)[C@H](CO)NC(=O)[C@H](CCCNC(=N)N)NC(=O)[C@H](CO)NC(=O)[C@H](CSSC2(C)C)NC1=O
Solution: 7.62
